Origin of measurements: ChEMBL document CHEMBL1201862

# Test system: T47D
# PROTOCOL DETAILS: NCI tumour cell line growth inhibition, 48 h
The source made the active and inactive calls. No stated cut-off is given here; in the data, active = GI50 up to about 1.1 µM and inactive = higher.
Log the outcome using a class from label 1 = active, label 0 = inactive

C=CCN1C(=O)CNC1=S    label 0
Cc1cc2c(c(/C=N/c3ccc(N(C)C)cc3)c1)OC1(C=C2)Oc2ccccc2C(=O)N1C (stereo not given)    label 0

Please indicate how the test categorized CC(=O)c1csc2c1C(=O)c1scc(C(C)=O)c1C2=O .
label 1

Test call, this molecule: c1ccc2c(c1)Nc1c3ccccc3nc3cccc-2c13
label 0

Record request — test call for COc1cc(C)cc2c1C(=O)C(Br)=CC2=O
label 0
